molecular target: stretch-activated channels (SACs); assay: Outside-out patch clamp of stretch-activated channels in adult rat astrocytes; format: cell-based; conditions: single binding site model; read-out: binding constant Kd from I/I0
TEST READOUT: pKd
To interpret pKd, take it as minus log10 of a concentration measured in moles per litre.

Give a short answer stating reported pKd for GCLEFWWKCNPNDDKCCRPKLKCSKLFKLCNFSFGK [GsMTx-4] .
6.38
